# target_of_assay: UniProt:P11712
# Sequence (P11712 whole entry): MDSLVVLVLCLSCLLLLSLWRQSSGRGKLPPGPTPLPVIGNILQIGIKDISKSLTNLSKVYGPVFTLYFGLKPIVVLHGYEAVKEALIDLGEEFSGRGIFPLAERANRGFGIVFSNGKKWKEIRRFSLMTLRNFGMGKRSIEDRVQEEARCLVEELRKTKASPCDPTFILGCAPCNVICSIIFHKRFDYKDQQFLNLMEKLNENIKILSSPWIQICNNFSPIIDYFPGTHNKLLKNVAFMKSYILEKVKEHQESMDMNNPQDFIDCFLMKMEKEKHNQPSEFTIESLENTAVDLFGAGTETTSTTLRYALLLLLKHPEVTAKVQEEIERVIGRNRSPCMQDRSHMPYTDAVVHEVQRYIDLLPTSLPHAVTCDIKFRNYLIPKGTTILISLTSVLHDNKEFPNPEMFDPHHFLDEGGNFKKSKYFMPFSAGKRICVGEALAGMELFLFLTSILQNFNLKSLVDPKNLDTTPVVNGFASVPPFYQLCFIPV
readout_name: IC50

IC50 reading for O=C(C1CCOC1)N1C[C@@H]2[C@H](CNc3nc(-c4ccccn4)cs3)[C@@H]2C1 (stereo partly specified) : > 10 µM

====

# target_of_assay: Voltage-gated inwardly rectifying potassium channel KCNH2 (Homo sapiens, UniProt Q12809)
# Sequence (Q12809 whole entry): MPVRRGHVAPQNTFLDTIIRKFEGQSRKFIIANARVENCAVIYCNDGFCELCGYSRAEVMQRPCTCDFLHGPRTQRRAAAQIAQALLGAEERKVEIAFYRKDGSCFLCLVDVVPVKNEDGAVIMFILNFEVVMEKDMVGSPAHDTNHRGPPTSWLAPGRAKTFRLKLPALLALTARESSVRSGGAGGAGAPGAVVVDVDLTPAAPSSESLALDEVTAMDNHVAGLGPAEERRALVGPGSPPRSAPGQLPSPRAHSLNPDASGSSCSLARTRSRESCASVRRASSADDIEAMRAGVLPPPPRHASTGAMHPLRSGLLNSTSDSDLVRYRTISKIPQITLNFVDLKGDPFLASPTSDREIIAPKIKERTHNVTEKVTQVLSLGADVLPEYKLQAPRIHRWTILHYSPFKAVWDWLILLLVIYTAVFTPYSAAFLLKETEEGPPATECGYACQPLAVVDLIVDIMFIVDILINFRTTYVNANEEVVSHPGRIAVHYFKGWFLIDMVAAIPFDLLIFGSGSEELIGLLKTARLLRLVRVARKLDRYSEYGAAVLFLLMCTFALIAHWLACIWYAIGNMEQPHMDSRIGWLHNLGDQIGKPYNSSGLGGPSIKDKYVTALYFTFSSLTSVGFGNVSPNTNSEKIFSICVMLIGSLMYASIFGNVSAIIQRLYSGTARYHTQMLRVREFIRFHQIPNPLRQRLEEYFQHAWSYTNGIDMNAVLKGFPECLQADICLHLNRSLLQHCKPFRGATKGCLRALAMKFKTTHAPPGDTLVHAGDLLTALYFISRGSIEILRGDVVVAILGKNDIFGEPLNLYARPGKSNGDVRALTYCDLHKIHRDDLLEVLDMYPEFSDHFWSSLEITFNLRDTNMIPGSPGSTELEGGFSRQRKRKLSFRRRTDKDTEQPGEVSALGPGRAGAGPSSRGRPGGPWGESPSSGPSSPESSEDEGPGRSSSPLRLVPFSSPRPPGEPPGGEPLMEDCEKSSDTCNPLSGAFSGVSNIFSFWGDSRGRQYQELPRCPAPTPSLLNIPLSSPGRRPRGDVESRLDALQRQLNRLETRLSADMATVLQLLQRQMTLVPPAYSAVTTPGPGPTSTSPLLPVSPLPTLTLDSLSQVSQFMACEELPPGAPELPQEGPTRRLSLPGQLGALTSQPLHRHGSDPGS
readout_name: IC50 (µM)
Numbers only, in µM.

Looking up O=C(C1CCOC1)N1C[C@@H]2[C@H](CNc3nc(-c4ccccn4)cs3)[C@@H]2C1 (stereo partly specified) , I found its IC50 recorded as 2

====

# target_of_assay: Neuropeptide Y receptor type 2 (Homo sapiens, UniProt P49146)
# Sequence (P49146 whole entry): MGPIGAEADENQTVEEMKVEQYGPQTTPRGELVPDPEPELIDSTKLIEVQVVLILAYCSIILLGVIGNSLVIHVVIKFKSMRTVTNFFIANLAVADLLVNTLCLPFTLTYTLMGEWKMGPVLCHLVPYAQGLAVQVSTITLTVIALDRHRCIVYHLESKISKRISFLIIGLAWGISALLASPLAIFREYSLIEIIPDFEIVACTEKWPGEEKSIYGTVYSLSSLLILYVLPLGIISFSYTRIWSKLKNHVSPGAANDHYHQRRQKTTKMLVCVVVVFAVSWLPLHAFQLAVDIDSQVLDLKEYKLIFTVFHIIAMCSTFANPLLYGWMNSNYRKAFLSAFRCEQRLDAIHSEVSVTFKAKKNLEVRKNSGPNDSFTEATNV
# method: Antagonist activity at human NPY Y2 receptor expressed in HEK293 cells assessed as inhibition of calcium level by FLIPR assay
pKi: −log10 of the molar value.
readout_name: pKi

Reported pKi ( FC(F)(F)c1ccc(Nc2nc(-c3ccccn3)cs2)cc1 ) = < 4.50

====

# target_of_assay: Cytochrome P450 2C19 (Homo sapiens)
# Sequence (P33261 whole entry): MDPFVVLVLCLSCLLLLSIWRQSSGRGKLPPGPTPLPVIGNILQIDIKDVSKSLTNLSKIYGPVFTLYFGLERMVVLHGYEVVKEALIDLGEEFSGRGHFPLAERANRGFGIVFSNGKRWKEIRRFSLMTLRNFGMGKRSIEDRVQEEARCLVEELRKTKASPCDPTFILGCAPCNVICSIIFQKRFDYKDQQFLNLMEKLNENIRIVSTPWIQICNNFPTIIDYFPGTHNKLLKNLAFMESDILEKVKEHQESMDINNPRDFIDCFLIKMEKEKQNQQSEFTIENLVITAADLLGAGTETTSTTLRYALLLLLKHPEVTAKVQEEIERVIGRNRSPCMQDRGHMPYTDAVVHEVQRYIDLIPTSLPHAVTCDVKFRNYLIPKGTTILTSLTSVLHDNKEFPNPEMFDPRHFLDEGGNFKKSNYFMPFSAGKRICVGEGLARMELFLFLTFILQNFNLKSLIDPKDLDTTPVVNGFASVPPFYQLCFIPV
# method: Inhibition of CYP2C19
# Type: ADME
readout_name: IC50

The molecule listed as O=C(C1CCOC1)N1C[C@@H]2[C@H](CNc3nc(-c4ccccn4)cs3)[C@@H]2C1 (stereo partly specified) has a reported IC50 of > 10 µM

====

# target_of_assay: Neuropeptide Y receptor type 1 (Homo sapiens, UniProt P25929)
# Sequence (P25929 whole entry): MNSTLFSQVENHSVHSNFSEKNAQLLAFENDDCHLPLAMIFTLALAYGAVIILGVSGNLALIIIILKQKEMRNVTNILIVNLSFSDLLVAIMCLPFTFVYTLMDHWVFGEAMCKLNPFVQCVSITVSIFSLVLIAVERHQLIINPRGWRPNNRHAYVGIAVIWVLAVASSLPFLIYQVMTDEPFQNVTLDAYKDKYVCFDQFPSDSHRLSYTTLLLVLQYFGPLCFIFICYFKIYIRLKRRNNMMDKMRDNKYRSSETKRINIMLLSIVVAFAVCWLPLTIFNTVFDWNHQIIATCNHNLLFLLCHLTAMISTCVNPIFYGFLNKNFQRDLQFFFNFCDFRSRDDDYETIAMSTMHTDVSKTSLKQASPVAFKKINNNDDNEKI
# method: Antagonist activity at human NPY Y1 receptor expressed in HEK293 cells assessed as inhibition of calcium level by FLIPR assay
pKi: −log10 of the molar value.
readout_name: pKi

pKi in this record for FC(F)(F)c1ccc(Nc2nc(-c3ccccn3)cs2)cc1 : < 4.50

====

Provide the recorded log10(Ki) for the entries that follow.
# target_of_assay: Neuropeptide Y receptor type 5 (Homo sapiens)
# method: Antagonist activity at human NPY Y5 receptor expressed in HEK293 cells assessed as inhibition of calcium level by FLIPR assay
Values are log10 of Ki in nM.

Recorded results for 3 molecules are shown here.
- molecule: "O=C(CCc1ccccc1)N1C[C@@H]2[C@H](CNc3nc(-c4ccccn4)cs3)[C@@H]2C1"
  log10(Ki): -0.20
- molecule: "O=C(N1C[C@@H]2[C@H](CNc3nc(-c4ccccn4)cs3)[C@@H]2C1)C1(c2ccccc2)CC1"
  log10(Ki): -0.10
- molecule: "O=C(C1CCOCC1)N1C[C@@H]2[C@H](CNc3nc(-c4ccccn4)cs3)[C@@H]2C1"
  log10(Ki): 1.50

# map each molecule to its log10(Ki)
1. CC(c1ccccc1)N1C[C@@H]2[C@H](CNc3nc(-c4ccccn4)cs3)[C@@H]2C1 (stereo partly drawn)
2. CC(C)C(=O)N1C[C@@H]2[C@H](CNc3nc(-c4ccccn4)cs3)[C@@H]2C1

[out]
1. 0.10
2. 0.40

For every item in the list below, what is its measured log10(Ki)?
1. c1ccc(CN2C[C@@H]3[C@H](CNc4nc(-c5ccccn5)cs4)[C@@H]3C2)cc1
2. O=C(c1cc(F)cc(F)c1)N1C[C@@H]2[C@H](CNc3nc(-c4ccccn4)cs3)[C@@H]2C1
3. O=C(C1CCCO1)N1C[C@@H]2[C@H](CNc3nc(-c4ccccn4)cs3)[C@@H]2C1 (stereo partly drawn)

[out]
0.20
0.20
0.70

====

# target_of_assay: Neuropeptide Y receptor type 5 (Homo sapiens, UniProt Q15761)
# Sequence (Q15761 whole entry): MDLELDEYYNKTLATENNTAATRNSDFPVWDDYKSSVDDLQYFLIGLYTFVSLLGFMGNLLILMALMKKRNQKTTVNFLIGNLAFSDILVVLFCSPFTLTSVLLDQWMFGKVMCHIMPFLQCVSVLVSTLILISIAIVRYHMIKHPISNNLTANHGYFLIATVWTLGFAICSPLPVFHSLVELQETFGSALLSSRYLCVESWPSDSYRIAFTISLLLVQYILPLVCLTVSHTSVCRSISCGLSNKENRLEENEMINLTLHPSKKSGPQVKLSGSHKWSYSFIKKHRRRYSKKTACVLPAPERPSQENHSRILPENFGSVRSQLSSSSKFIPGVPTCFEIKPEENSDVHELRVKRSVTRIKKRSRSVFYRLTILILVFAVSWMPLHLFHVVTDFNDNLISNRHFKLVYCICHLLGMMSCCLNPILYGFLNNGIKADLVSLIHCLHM
# method: Antagonist activity at human NPY Y5 receptor expressed in HEK293 cells assessed as inhibition of calcium level by FLIPR assay
readout_name: Ki (nM)
One number for each entry, in nM.

Provide the reported Ki of each entry below, same order.
1. CC(=O)N1C[C@@H]2[C@H](CNc3nc(-c4ccccn4)cs3)[C@@H]2C1
2. c1ccc(-c2csc(NC[C@H]3[C@@H]4CNC[C@@H]43)n2)nc1
3. Cc1cc(C)cc(CN2C[C@@H]3[C@H](CNc4nc(-c5ccccn5)cs4)[C@@H]3C2)c1
4. O=C(Cc1ccccc1)N1C[C@@H]2[C@@H](CNc3nc(-c4ccccn4)cs3)[C@@H]2C1
5. O=C(c1cccnc1)N1C[C@@H]2[C@H](CNc3nc(-c4ccccn4)cs3)[C@@H]2C1
6. O=C(C1CCOC1)N1C[C@@H]2[C@H](CNc3nc(-c4ccccn4)cs3)[C@@H]2C1 (stereo partly drawn)
7. O=C(Cc1ccccc1)N1C[C@@H]2[C@H](CNc3nc(-c4ccccn4)cs3)[C@@H]2C1
8. CC(C(=O)N1C[C@@H]2[C@H](CNc3nc(-c4ccccn4)cs3)[C@@H]2C1)C(C)c1ccccc1 (stereo partly drawn)

[out]
[2510, 1000, 3.98, 1, 5.01, 7.94, 1, 5.01]

====

# method: Solubility of the compound by high throughput chemiluminescent nitrogen detection method
# Format: physicochemical
readout_name: solubility (mg/mL)
Give bare numbers, in mg/mL.

Quick note, solubility for CC(C)C(=O)N1C[C@@H]2[C@H](CNc3nc(-c4ccccn4)cs3)[C@@H]2C1 landed at 0.12

====

# target_of_assay: Neuropeptide Y receptor type 5 (Homo sapiens)
# method: Antagonist activity at human NPY Y5 receptor expressed in HEK293 cells assessed as inhibition of calcium level by FLIPR assay
Label true when Ki is strictly below 3 nM; at or above that, label false.

Some entries whose results are on file:
- molecule: "CC(C)CN1C[C@@H]2[C@H](CNc3nc(-c4ccccn4)cs3)[C@@H]2C1"
  target_of_assay: "Neuropeptide Y receptor type 5 (Homo sapiens)"
  class: "false"
- molecule: "O=C(c1ccccc1)N1C[C@@H]2[C@H](CNc3nc(-c4ccccn4)cs3)[C@@H]2C1"
  target_of_assay: "Neuropeptide Y receptor type 5 (Homo sapiens)"
  class: "true"
- molecule: "FC(F)(F)c1ccc(Nc2nc(-c3ccccn3)cs2)cc1"
  target_of_assay: "Neuropeptide Y receptor type 5 (Homo sapiens)"
  class: "false"
- molecule: "O=C(CCc1ccccc1)N1C[C@@H]2[C@@H](CNc3nc(-c4ccccn4)cs3)[C@@H]2C1"
  target_of_assay: "Neuropeptide Y receptor type 5 (Homo sapiens)"
  class: "false"
- molecule: "Fc1cc(F)cc(CN2C[C@@H]3[C@H](CNc4nc(-c5ccccn5)cs4)[C@@H]3C2)c1"
  target_of_assay: "Neuropeptide Y receptor type 5 (Homo sapiens)"
  class: "true"

Then there is this molecule:
[in] Is Ki strictly under 3 nM for the entry O=C([C@H]1C[C@@H]1c1ccccc1)N1C[C@@H]2[C@H](CNc3nc(-c4ccccn4)cs3)[C@@H]2C1 ?
[out] true

====

# target_of_assay: Neuropeptide Y receptor type 5 (Homo sapiens, UniProt Q15761)
# method: Antagonist activity at human NPY Y5 receptor expressed in HEK293 cells assessed as inhibition of calcium level by FLIPR assay
readout_name: Ki (nM)
Give bare numbers, in nM.

- compound: "O=C(c1ccccc1)N1C[C@@H]2[C@@H](CNc3nc(-c4ccccn4)cs3)[C@@H]2C1"
  target_of_assay: "Neuropeptide Y receptor type 5 (Homo sapiens, UniProt Q15761)"
  quantity_unit: "nM"
  observed_value: 12.6
- compound: "O=C(c1ccncc1)N1C[C@@H]2[C@H](CNc3nc(-c4ccccn4)cs3)[C@@H]2C1"
  target_of_assay: "Neuropeptide Y receptor type 5 (Homo sapiens, UniProt Q15761)"
  quantity_unit: "nM"
  observed_value: 50.1
- compound: "O=C(c1cccc(F)c1)N1C[C@@H]2[C@H](CNc3nc(-c4ccccn4)cs3)[C@@H]2C1"
  target_of_assay: "Neuropeptide Y receptor type 5 (Homo sapiens, UniProt Q15761)"
  quantity_unit: "nM"
  observed_value: 1

Continue with the compound presented below.
// compound CC(C(=O)N1C[C@@H]2[C@H](CNc3nc(-c4ccccn4)cs3)[C@@H]2C1)c1ccccc1 (some centres undefined) , assay Neuropeptide Y receptor type 5 (Homo sapiens, UniProt Q15761), Ki value: 0.398
